Attribution: patent US20150291598A1

system: P. falciparum (NF54 or 3D7 strain); test: Assay for P. falciparum proliferation in infected human blood cells (SYBR Green); type: cell-based, Plasmodium falciparum; settings: Plasmodium falciparum, Erythrocyte, 72 h, NF54 or 3D7 infected human erythrocytes, 72 hours; read-out: EC50 (nM), inhibitory efficacy in delaying P. falciparum proliferation in infected human blood cells
reported_metric: log10(EC50) (log10 of the value in nM)
Parameter value (number): base-10 log of EC50 in nM.

Req: Please list log10(EC50) recorded for the molecule CN(C(=O)c1cn2c(-c3ccc(C(F)(F)F)cc3)cnc2cn1)c1cccc(Cl)c1
Resp: 2.66

Req: Please list log10(EC50) recorded for the molecule CN(C(=O)c1cn2c(-c3ccc(-c4ccn[nH]4)cc3)cnc2cn1)c1ccc(C#N)cc1
Resp: 1.53

Req: Please list log10(EC50) recorded for the molecule N#Cc1nc[nH]c1NC(=O)c1cn2c(-c3ccc(C(F)(F)F)cc3)cnc2cn1
Resp: 3.30

Req: Please list log10(EC50) recorded for the molecule Cc1cncc(N(C)C(=O)c2cn3c(-c4ccc(C(F)(F)F)cc4)cnc3cn2)c1
Resp: 3.74

Req: Please list log10(EC50) recorded for the molecule Cc1ccc(-c2cnc3cnc(C(=O)N(C)c4ccc(C#N)cc4)cn23)nc1
Resp: 2.45

Req: Please list log10(EC50) recorded for the molecule CN(Cc1cn2c(-c3ccc(-c4nnc(N)s4)cc3)cnc2cn1)c1ccc(C#N)cc1
Resp: 0.78

Req: Please list log10(EC50) recorded for the molecule C=Cc1cnc2cnc(C(=O)N(C)c3ccc(Cl)nc3)cn12
Resp: 3.71

Req: Please list log10(EC50) recorded for the molecule CN(C(=O)c1cn2c(-c3ccc(C(F)(F)F)cc3)cnc2cn1)c1cncc(Cl)c1
Resp: 3.33

Req: Please list log10(EC50) recorded for the molecule CN(C(=O)c1cn2c(-c3ccc(C(F)(F)F)cc3)cnc2cn1)c1cncc(F)c1
Resp: 3.70

Req: Please list log10(EC50) recorded for the molecule CN(C(=O)c1cn2c(-c3ccc(C(F)(F)F)cc3)cnc2cn1)c1ccc(OC(F)F)cc1
Resp: 2.92

Req: Please list log10(EC50) recorded for the molecule CN(C(=O)c1cn2c(-c3ccc4occc4c3)cnc2cn1)c1ccc(Cl)nc1
Resp: 3.62

Req: Please list log10(EC50) recorded for the molecule CN(C(=O)c1cn2c(-c3ccc4c(ccn4C)c3)cnc2cn1)c1ccc(F)c(F)c1
Resp: 2.37

Req: Please list log10(EC50) recorded for the molecule CS(=O)(=O)c1ccc2c(c1)CCCN2C(=O)c1cn2c(-c3ccc(C(F)(F)F)cc3)cnc2cn1
Resp: 3.28

Req: Please list log10(EC50) recorded for the molecule CN(C(=O)c1cn2c(-c3ccc(C(F)(F)F)cc3)cnc2cn1)c1ncc(Cl)cc1F
Resp: 2.79
